- studyTarget: CYP 3A4 (Homo sapiens)
- Construct: purchased BioIVT X008067
- Sequence (P08684 whole entry): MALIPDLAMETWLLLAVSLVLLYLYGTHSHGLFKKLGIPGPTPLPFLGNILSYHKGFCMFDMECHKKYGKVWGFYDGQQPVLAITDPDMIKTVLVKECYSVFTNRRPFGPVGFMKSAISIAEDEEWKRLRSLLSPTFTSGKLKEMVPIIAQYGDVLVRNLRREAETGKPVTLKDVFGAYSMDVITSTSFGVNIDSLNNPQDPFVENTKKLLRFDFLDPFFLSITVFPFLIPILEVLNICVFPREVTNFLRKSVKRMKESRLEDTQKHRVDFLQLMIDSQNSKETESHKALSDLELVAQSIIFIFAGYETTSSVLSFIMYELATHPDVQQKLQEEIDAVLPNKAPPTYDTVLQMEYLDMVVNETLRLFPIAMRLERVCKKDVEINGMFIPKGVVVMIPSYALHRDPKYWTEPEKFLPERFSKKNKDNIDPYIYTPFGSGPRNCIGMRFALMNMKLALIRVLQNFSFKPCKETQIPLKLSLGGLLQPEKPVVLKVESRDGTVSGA
- procedureDetails: CYP 3A4 time-dependent inhibition test
- Assay type: in vitro ADME
- reportedConditions: 30 min pre-incubation with NADPH, midazolam substrate; read-out: IC50 (μM) 30 min, with NADPH
assayMetric: IC50 (µM)
# value in µM; strip the unit string

Worked examples, 4 compounds total:
[[record]]
compound = "[2H]C([2H])([2H])NC(=O)c1ccc(NCC#Cc2cc3c(NC4CCC(N5CC6(COC6)C5)CC4F)cccn3c2CC(F)(F)F)c(OC([2H])([2H])[2H])c1 (single isomer, unassigned) [Compound 74d]"
assaymetric = "IC50"
endpointvalue = 1.56

[[record]]
compound = "[2H]C([2H])([2H])NC(=O)c1ccc(NCC#Cc2nc3c(NC4CCC(N5CCOCC5)CC4F)cccn3c2CC(F)(F)F)c(OC([2H])([2H])[2H])c1 (single isomer, unassigned) [Compound 70d]"
assaymetric = "IC50"
endpointvalue = 1.91

[[record]]
compound = "CNC(=O)c1ccc(NCC#Cc2nc3c(NC4CCC(N5CC6(COC6)C5)CC4F)cccn3c2CC(F)(F)F)c(OC)c1 (single isomer, unassigned) [Compound 35-6i]"
assaymetric = "IC50"
endpointvalue = 3.01

[[record]]
compound = "CNC(=O)c1ccc(NCC#Cc2nc3c(N[C@@H]4CCN(C)C[C@@H]4F)cccn3c2CC(F)(F)F)c(OC)c1 [Compound 5]"
assaymetric = "IC50"
endpointvalue = 1.89


Query string: GET /values?readout=IC50&item= CNC(=O)c1ccc(NCC#Cc2cc3c(N[C@@H]4CCN(C)C[C@@H]4F)cccc3n2CC(F)(F)F)c(OC)c1 [Reference compound, reference compound]
Result string: 0.58

====

- Tested on: NUGC-3 cells
- procedureDetails: NUGC-3 cell proliferation assay (CTG)
- Assay type: cell-based, human
- reportedConditions: Homo sapiens, NUGC-3, 144 h, 6 days, CTG
assayMetric: GI50

[[record]]
molecule = "CONC(=O)c1ccc(NCC#Cc2nc3c(NC4CC[C@@H](N5CC6(COC6)C5)C[C@@H]4F)cccn3c2CC(F)(F)F)c(OC)c1 (stereo partly drawn)"
endpointvalue = "< 1000 nM"

[[record]]
molecule = "COc1cc(S(N)(=O)=O)ccc1NCC#Cc1nc2c(NC3CCN(C)CC3)cccn2c1CC(F)(F)F"
endpointvalue = "≥ 5000 nM"


Query string: GET /values?readout=GI50&item= [2H]C([2H])([2H])NC(=O)c1ccc(NCC#Cc2cc3c(NC4CCC(N5CCOCC5)CC4F)cccn3c2CC(F)(F)F)c(OC([2H])([2H])[2H])c1 (single isomer, unassigned) [Compound 73d]
Result string: < 1000 nM

====

- studyTarget: p53 Y220C (Homo sapiens, UniProt P04637, P309S/R273H/Y220C)
- Construct: a truncated mutant containing only amino acids 94-312 of p53
- procedureDetails: DNA binding test (HTRF): binding of P53Y220C protein to DNA
- reportedConditions: HTRF, activation of p53 Y220C (aa 94-312) binding to biotin DNA
- Experimental: In order to detect the ability of the aforementioned compounds to increase the binding of P53Y220C protein to DNA, the binding activity of p53 Y220C was measured by homogeneous time-resolved fluorescence (HTRF). Recombinant His-tagged p53 Y220C for HTRF measurement was expressed in bacteria E. coli. […] The plate was then read for signal values on an Envision (PerkinElmer 2105-0020) plate reader at 665 nm and 615 nm, respectively. […]
assayMetric: EC50

Worked examples, 5 compounds total:
[[record]]
compound = "CNC(=O)c1ccc(NCC#Cc2nc3c(N[C@@H]4CC[C@@H](N5CC6(COC6)C5)C[C@@H]4F)cccn3c2CC(F)(F)F)c(OC2CC2)c1"
endpointvalue = "< 100 nM"

[[record]]
compound = "CONC(=O)c1ccc(NCC#Cc2nc3c(N[C@@H]4CC[C@@H](N5CC6(COC6)C5)C[C@@H]4F)cccn3c2CC(F)(F)F)c(OC)c1"
endpointvalue = "< 100 nM"

[[record]]
compound = "COCCNC(=O)c1ccc(NCC#Cc2nc3c(NC4CCN(C)CC4)cccn3c2CC(F)(F)F)c(OC)c1"
endpointvalue = "100 to 500 nM"

[[record]]
compound = "CNC(=O)c1ccc(NCC#Cc2nc3c(NC4CCC(N5CC6(COC6)C5)CC4F)cccn3c2CC(F)(F)F)c(OC)c1 (single isomer, unassigned) [Compound 35-6g]"
endpointvalue = "100 to 500 nM"

[[record]]
compound = "COc1cc(-c2nccs2)ccc1NCC#Cc1nc2c(NC3CCN(C)CC3)cccn2c1CC(F)(F)F"
endpointvalue = "100 to 500 nM"


Query string: GET /values?readout=EC50&item= CNC(=O)c1ccc(NCC#Cc2nc3c(NC4CCC(N5CC6(COC6)C5)CC4F)cccn3c2CC(F)(F)F)c(OC)c1 (single isomer, unassigned) [Compound 35-6i]
Result string: < 100 nM

Query string: GET /values?readout=EC50&item= CNC(=O)c1ccc(NCC#Cc2nc3c(N[C@@H]4CC[C@@H](N5CC6(CCOCC6)C5)C[C@@H]4F)cccn3c2CC(F)(F)F)c(OC)c1
Result string: < 100 nM

Query string: GET /values?readout=EC50&item= CNC(=O)c1cc(OC)c(NCC#Cc2nc3c(N[C@H]4CC[C@H](N5CC6(COC6)C5)CC4)cccn3c2CC(F)(F)F)cc1F
Result string: < 100 nM
